target.or.system: T1, human CD47 protein, His Tag (ACRObiosystems, Cat. No. CD7-H5227) (human, UniProt Q08722 19-139)
T1 construct: bought reagent; also called CD47-His; hCD47-His Tag; not shown: His tag
T1 sequence (Q08722 19-139 limits assumed): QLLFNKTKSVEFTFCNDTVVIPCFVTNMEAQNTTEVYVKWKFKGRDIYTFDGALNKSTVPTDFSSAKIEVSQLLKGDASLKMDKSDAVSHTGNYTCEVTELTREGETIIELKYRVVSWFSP
protocol.description: ELISA, plate coated with CD47-His
measured.metric: EC50

binder	result
hz3F10-4.2 (antibody, human IgG4 S228P, kappa, V domains shown, humanized 3F10, full-length heavy and light chains) VH: QVQLVQSGAEVKKPGSSVKVSCKASGYTFSRYWIEWVRQAPGQGLEWMGEFIPGSDTTNYAQKFQGRVTITAEISTNTAYMELSSLRSEDTAVYYCARGGLRRMDYWGQGTLVTVSS VL: DIQMTQSPSSLSASVGDRVTITCRASSSVSSTYLHWYQQKPGKAPKLLIYTTSTLASGVPSRFSGSGSGTSYTLTISSLQPEDFATYYCQQFSESTWTFGQGTKLEIKR	0.181 µg/mL

// next item, EC50 requested
Query block: Quick check: EC50 of hz3F10-3.1 (antibody, human IgG4 S228P, kappa, V domains shown, humanized 3F10, full-length heavy and light chains) VH: QVQLVQSGAEVKKPGSSVKVSCKASGYTFSRYWIEWVRQAPGQGLEWMGEFIPGSDTTNYAQKFQGRVTITADISTSTAYMELSSLRSEDTAVYYCARGGLRRMDYWGQGTLVTVSS VL: DIQMTQSPSSLSASVGDRVTITCRASSSVSSTYLHWYQQKPGKAPKLLIYTTSTLASGVPSRFSGSGSGTSYTLTISSLQPEDFATYYCQQFSDSTWTFGQGTKLEIKR ?
Result block: 0.127 µg/mL
